# target under test: UniProt:Q8NI60
# Sequence (Q8NI60 whole entry): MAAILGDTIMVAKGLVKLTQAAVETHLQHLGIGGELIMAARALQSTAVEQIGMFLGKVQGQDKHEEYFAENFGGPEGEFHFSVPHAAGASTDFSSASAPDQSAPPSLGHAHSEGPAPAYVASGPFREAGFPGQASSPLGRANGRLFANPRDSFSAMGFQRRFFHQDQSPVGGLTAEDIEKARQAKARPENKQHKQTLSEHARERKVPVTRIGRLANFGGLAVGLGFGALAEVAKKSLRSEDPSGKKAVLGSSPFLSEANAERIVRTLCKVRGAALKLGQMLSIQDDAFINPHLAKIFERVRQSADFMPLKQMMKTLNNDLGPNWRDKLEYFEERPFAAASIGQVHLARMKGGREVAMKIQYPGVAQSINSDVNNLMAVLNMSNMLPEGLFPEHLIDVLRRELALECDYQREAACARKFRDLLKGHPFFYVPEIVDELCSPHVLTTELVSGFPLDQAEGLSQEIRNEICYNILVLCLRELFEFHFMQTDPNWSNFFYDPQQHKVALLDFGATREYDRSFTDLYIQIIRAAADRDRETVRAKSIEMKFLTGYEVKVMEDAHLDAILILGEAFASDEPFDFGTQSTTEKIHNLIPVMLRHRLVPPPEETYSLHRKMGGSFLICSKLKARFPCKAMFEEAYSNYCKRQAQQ
The source made the active and inactive calls.
Would you mind answering with one of these outcomes? active, inactive

>  <compound>
COc1cc2ncnc(Oc3cccc(NC(=O)Nc4cc(C(C)(C)C(F)(F)F)on4)c3)c2cc1OC [CEP-32496]

>  <target under test>
UniProt:Q8NI60

>  <label value>
inactive

$$$$
>  <compound>
O=C(Cc1ccc(-c2ccc(OCCN3CCOCC3)cc2)cn1)NCc1ccccc1 [TIRBANIBULIN]

>  <target under test>
UniProt:Q8NI60

>  <label value>
inactive

$$$$
>  <compound>
Cc1cc(Nc2ncc(Cl)c(Nc3ccccc3S(=O)(=O)C(C)C)n2)c(OC(C)C)cc1C1CCNCC1 [CERITINIB]

>  <target under test>
UniProt:Q8NI60

>  <label value>
inactive

$$$$

## Input Tell me the recorded outcome of this test for COc1c(OCCCN2CCOCC2)ccc2c1N=C(NC(=O)c1cnc(N)nc1)N1CCN=C21 [COPANLISIB] .
## Output inactive

## Input Tell me the recorded outcome of this test for CCn1c(C(=O)N(C2CC2)C2CC2)cc2c3c(ncn3C)c(Nc3cc(C)n(C)n3)nc21 [BMS-911543] .
## Output inactive

## Input Tell me the recorded outcome of this test for CO[C@H]1C[C@@H]2CC[C@@H](C)[C@@](O)(O2)C(=O)C(=O)N2CCCC[C@H]2C(=O)O[C@H]([C@H](C)C[C@@H]2CC[C@@H](OP(C)(C)=O)[C@H](OC)C2)CC(=O)[C@H](C)/C=C(\C)[C@@H](O)[C@@H](OC)C(=O)[C@H](C)C[C@H](C)/C=C/C=C/C=C/1C [RIDAFOROLIMUS] .
## Output inactive

## Input Tell me the recorded outcome of this test for Cc1csc(-c2nnc(Nc3ccc(Oc4ncccc4-c4ccnc(N)n4)cc3)c3ccccc23)c1 [AMG-900] .
## Output inactive

## Input Tell me the recorded outcome of this test for N#CC1(c2ccc(NC(=O)c3cccnc3NCc3ccncc3)cc2)CCCC1 [RIVOCERANIB] .
## Output inactive

## Input Tell me the recorded outcome of this test for CN1C/C=C/CCOc2cccc(c2)-c2ccnc(n2)Nc2cccc(c2)C1 [ZOTIRACICLIB] .
## Output inactive

## Input Tell me the recorded outcome of this test for CN1CCN(CCOc2cc(OC3CCOCC3)c3c(Nc4c(Cl)ccc5c4OCO5)ncnc3c2)CC1 [SARACATINIB] .
## Output active

## Input Tell me the recorded outcome of this test for C[C@@H](Oc1cc(C(=O)Nc2ccc(C(=O)N3CCN(C)CC3)cc2)nnc1N)c1c(Cl)ccc(F)c1Cl .
## Output inactive

## Input Tell me the recorded outcome of this test for Cn1cc(-c2cnn3c(N)c(Br)c([C@@H]4CCCNC4)nc23)cn1 [SCH-900776] .
## Output inactive

## Input Tell me the recorded outcome of this test for COCC(=O)NC/C=C/c1ccc2ncnc(Nc3ccc(Oc4ccc(C)nc4)c(C)c3)c2c1 [CP-724714] .
## Output inactive

## Input Tell me the recorded outcome of this test for CNC(=O)c1cc(Oc2ccc(NC(=O)Nc3cc(C(C)(C)C)nn3-c3ccc4ncccc4c3)c(F)c2)ccn1 [REBASTINIB] .
## Output inactive

## Input Tell me the recorded outcome of this test for C[C@H]1CNCCCN1S(=O)(=O)c1cccc2cncc(F)c12 .
## Output inactive

## Input Tell me the recorded outcome of this test for Nc1ncnc2c1c(-c1cccc(OCc3ccccc3)c1)cn2[C@H]1C[C@@H](CN2CCC2)C1 [AEW-541] .
## Output active

## Input Tell me the recorded outcome of this test for Cn1ncc(Cl)c1-c1cc(C(=O)N[C@H](CN)Cc2ccc(F)c(F)c2)oc1Cl [UPROSERTIB] .
## Output inactive

## Input Tell me the recorded outcome of this test for COCc1c(-c2ccc(NC(=O)Nc3cc(C(F)(F)F)ccc3F)c(F)c2)c2c(N)ncnn2c1CN1CCOCC1 .
## Output inactive

## Input Tell me the recorded outcome of this test for NC(=O)Nc1cc(-c2cccc(F)c2)sc1C(=O)N[C@H]1CCCNC1 [AZD-7762] .
## Output inactive

## Input Tell me the recorded outcome of this test for Cc1cnc(NC(=O)Nc2cc(Br)c(C)cc2OC[C@@H]2CNCCO2)cn1 [RABUSERTIB] .
## Output inactive

## Input Tell me the recorded outcome of this test for Cc1nc2cc(-n3ncc(C(=O)c4cc5ccccc5[nH]4)c3N)ccc2[nH]1 [FGFR INHIBITOR DEBIO 1347] .
## Output inactive

## Input Tell me the recorded outcome of this test for CCCCCCCCCCCCCCCCCCOP(=O)([O-])OC1CC[N+](C)(C)CC1 [PERIFOSINE] .
## Output inactive
